Field: inhibition. Provide a value for each of the compounds that follow.
- assayed_system: DNA topoisomerase II (Homo sapiens) (UniProt P11388+Q02880)
- assay_procedure: Inhibition of DNA topoisomerase II at 100 uM.
- Type: protein assay
Answers are plain numbers, in %.

Please review the following examples before continuing.
COc1cc([C@@H]2c3cc4c(cc3[C@@H](Nc3ccc(I)cc3)[C@H]3COC(=O)[C@H]23)OCO4)cc(OC)c1O | 25
COc1cc([C@@H]2c3cc4c(cc3[C@@H](Nc3cccc(Cl)c3)[C@H]3COC(=O)[C@H]23)OCO4)cc(OC)c1O | 50
COc1cc([C@@H]2c3cc4c(cc3[C@@H](Nc3ccc(Br)cc3)[C@H]3COC(=O)[C@H]23)OCO4)cc(OC)c1O | 50
COc1cc([C@@H]2c3cc4c(cc3[C@@H](Nc3cc(F)cc(F)c3)[C@H]3COC(=O)[C@H]23)OCO4)cc(OC)c1O | 50

Hello, I would appreciate it if you could give inhibition for each entry below.
1. COc1cc([C@@H]2c3cc4c(cc3[C@@H](Nc3ccccc3O)[C@H]3COC(=O)[C@H]23)OCO4)cc(OC)c1OC
2. COc1cc([C@@H]2c3cc4c(cc3[C@@H](Nc3ccc(Cl)cc3)[C@H]3COC(=O)[C@H]23)OCO4)cc(OC)c1O
3. COc1cc([C@@H]2c3cc4c(cc3[C@@H](Nc3ccc(O)cc3)[C@H]3COC(=O)[C@H]23)OCO4)cc(OC)c1O

1. 25
2. 75
3. 75

Hello, I would appreciate it if you could give inhibition for each entry below.
1. COc1cc([C@@H]2c3cc4c(cc3[C@@H](Nc3cccc(F)c3)[C@H]3COC(=O)[C@H]23)OCO4)cc(OC)c1O
2. COc1cc([C@@H]2c3cc4c(cc3[C@@H](Nc3ccccc3F)[C@H]3COC(=O)[C@H]23)OCO4)cc(OC)c1O

75
50

###

- assay_procedure: In vitro cytotoxicity against KB cells after a 3-day incubation.
- Format: functional
- measurement_conditions: Homo sapiens, 72 h, read-out: ID50 (the source's name)
quantity_kind: IC50 (nM)
Numbers only, in nM.

Please review the following examples before continuing.
COc1cc([C@@H]2c3cc4c(cc3[C@@H](Nc3cccc(F)c3)[C@H]3COC(=O)[C@H]23)OCO4)cc(OC)c1O | 230
COc1cc([C@@H]2c3cc4c(cc3[C@@H](Nc3ccc(Br)cc3)[C@H]3COC(=O)[C@H]23)OCO4)cc(OC)c1O | 220
COc1cc([C@@H]2c3cc4c(cc3[C@@H](Nc3ccccc3Cl)[C@H]3COC(=O)[C@H]23)OCO4)cc(OC)c1O | 2340

Hello, I would appreciate it if you could give IC50 for each entry below.
1. COc1cc([C@@H]2c3cc4c(cc3[C@@H](Nc3cccc(Br)c3)[C@H]3COC(=O)[C@H]23)OCO4)cc(OC)c1O
2. COc1cc([C@@H]2c3cc4c(cc3[C@@H](Nc3ccccc3O)[C@H]3COC(=O)[C@H]23)OCO4)cc(OC)c1OC
3. COc1cc([C@@H]2c3cc4c(cc3[C@@H](Nc3ccc(I)cc3)[C@H]3COC(=O)[C@H]23)OCO4)cc(OC)c1O
4. COc1cc([C@@H]2c3cc4c(cc3[C@@H](Nc3ccccc3O)[C@H]3COC(=O)[C@H]23)OCO4)cc(OC)c1O

[2360, 4110, 340, 4540]

###

- assayed_system: DNA topoisomerase II (Homo sapiens) (UniProt P11388+Q02880)
- assay_procedure: Inhibition of DNA topoisomerase II at 100 uM.
- Format: protein assay
Field: inhibition. Provide a value for each of the molecules that follow.

COc1cc([C@@H]2c3cc4c(cc3[C@@H](Nc3ccccc3O)[C@H]3COC(=O)[C@H]23)OCO4)cc(OC)c1O | > 75%
COc1cc([C@@H]2c3cc4c(cc3[C@@H](Nc3cccc(O)c3)[C@H]3COC(=O)[C@H]23)OCO4)cc(OC)c1O | > 75%

Name the recorded inhibition for `COc1cc([C@@H]2c3cc4c(cc3[C@@H](Nc3ccc(F)cc3)[C@H]3COC(=O)[C@H]23)OCO4)cc(OC)c1O` .
> 75%

// data source = ChEMBL document CHEMBL1125061
